Protein target, amino acids: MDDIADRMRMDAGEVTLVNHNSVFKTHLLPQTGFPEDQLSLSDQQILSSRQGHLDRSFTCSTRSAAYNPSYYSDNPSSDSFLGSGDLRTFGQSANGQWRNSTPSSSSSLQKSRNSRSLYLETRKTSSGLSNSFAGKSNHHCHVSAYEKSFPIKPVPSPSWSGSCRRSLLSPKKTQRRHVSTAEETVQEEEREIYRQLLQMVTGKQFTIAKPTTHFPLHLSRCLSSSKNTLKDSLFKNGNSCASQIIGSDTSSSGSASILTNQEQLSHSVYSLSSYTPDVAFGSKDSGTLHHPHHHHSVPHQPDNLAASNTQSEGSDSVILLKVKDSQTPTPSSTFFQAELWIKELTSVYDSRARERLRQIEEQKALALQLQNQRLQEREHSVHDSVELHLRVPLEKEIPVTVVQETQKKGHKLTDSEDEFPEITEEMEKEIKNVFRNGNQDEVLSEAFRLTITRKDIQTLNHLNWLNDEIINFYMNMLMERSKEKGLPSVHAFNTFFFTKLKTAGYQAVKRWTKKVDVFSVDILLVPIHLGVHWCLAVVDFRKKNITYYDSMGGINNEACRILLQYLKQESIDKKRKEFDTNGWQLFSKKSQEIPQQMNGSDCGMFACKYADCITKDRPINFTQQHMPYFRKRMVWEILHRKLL
Consider the cut-off 10 µM. If the recorded IC50 is strictly smaller, the label is y; if not, the label is n.

# compound, label_class
rows = [
    ("O=C(O)c1ccc(N=NCc2cccc3nccnc23)cc1", "n"),
    ("CCOc1cc(C=c2[nH]c3n(c2=O)CCCCC=3)ccc1O [MLS000774439]", "y"),
    ("Nc1ccc2c(c1)C(N=O)c1cc([N+](=O)[O-])ccc1-2 (stereo not given)", "n"),
    ("O=C1CCCC2=Nc3cc(Cl)ccc3SC12 (stereo not given) [MLS000333002]", "n"),
]

Could you now consider this next compound?
Ask | State whether 10 µM exceeds IC50 recorded for O=C1CC(=O)c2cccc3cccc1c23 [3-hydroxy-1H-phenalen-1-one] .
Reply | n
